Multi-source literature compilation: pKi on D(2) dopamine receptor (Homo sapiens).
Sequence (P14416 whole entry): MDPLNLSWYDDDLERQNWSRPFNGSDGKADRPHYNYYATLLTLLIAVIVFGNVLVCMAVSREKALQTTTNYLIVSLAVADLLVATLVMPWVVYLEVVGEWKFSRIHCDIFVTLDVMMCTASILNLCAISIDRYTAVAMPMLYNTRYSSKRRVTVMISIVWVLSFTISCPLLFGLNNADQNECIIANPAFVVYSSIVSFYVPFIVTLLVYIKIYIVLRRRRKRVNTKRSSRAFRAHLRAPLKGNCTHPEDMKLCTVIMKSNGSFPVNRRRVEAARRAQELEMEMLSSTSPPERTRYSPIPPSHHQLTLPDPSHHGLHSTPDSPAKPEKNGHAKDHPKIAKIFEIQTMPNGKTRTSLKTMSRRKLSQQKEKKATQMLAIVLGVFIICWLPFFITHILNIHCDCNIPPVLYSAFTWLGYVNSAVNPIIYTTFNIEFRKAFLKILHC
pKi: −log10 of the molar value.
readout_kind: pKi

compound: OC1(c2ccccc2Cl)CCN(Cc2c[nH]c3ccccc23)CC1
test_system: D(2) dopamine receptor (Homo sapiens)
pKi: 6.42

I: O=S(=O)(NC1CCN(CCOc2cccc3c2CCCC3)C1)c1cccs1 (stereo unspecified)
II: COc1ccccc1N1CCN(CC(O)CN2C(=O)NC(C)(C)C2=O)CC1 (stereo unspecified)
III: COc1ccccc1N1CCN(CCCCc2cn(-c3ccc(SC)cc3)nn2)CC1
IV: COc1cc(CN2CCOCC2)ccc1OCCCN1CCC(c2noc3cc(F)ccc23)CC1
Request: Rank items: key pKi, increasing. Write the labels, ordered according to the request.
Result: II, I, III, IV
(II: 5.67, I: 7.14, III: 7.42, IV: 8.59)

A: COc1ccccc1N1CCN(CCCCOc2ccc(-c3cn4ccc(C)cc4n3)cc2)CC1
B: COc1ccc2c(c1)CCN1Cc3ccccc3CC21 (stereo unspecified)
Request: // max by pKi over [ A , B ] Reply briefly: the label of your chosen item.
Result: A

I: O=C1COc2ccccc2N1CCCN1CCC(c2noc3cc(F)ccc23)CC1
II: COc1ccccc1N1CCN(CCCCNC(=O)c2ccc(Cl)cc2)CC1
III: CSc1ccccc1OCCN1CCC(NS(=O)(=O)c2cccc(Cl)c2)C1 (stereo unspecified)
Request: Rank items: key pKi, increasing. Write the labels, ordered according to the request.
Result: III, II, I
(III: 7.44, II: 7.71, I: 8.49)
